Please find below pKi measurements for hCRTH2 receptor (Homo sapiens (Human)), combined from several publications.
pKi: −log10 of the molar value.
MEASURED METRIC: pKi

[
  {
    "COMPOUND": "CN1C(c2cn(CC(=O)O)c3ccccc23)c2ccccc2S1(=O)=O (centres unmarked)",
    "MEASURED METRIC": "pKi",
    "OBSERVED VALUE": "> 5.00"
  },
  {
    "COMPOUND": "Cc1c(Cc2cccn2S(=O)(=O)c2ccc(F)cc2F)c2cc(F)ccc2n1CC(=O)O",
    "MEASURED METRIC": "pKi",
    "OBSERVED VALUE": 8.70
  },
  {
    "COMPOUND": "Cc1nn(Cc2ccc(-c3nc4cncnc4[nH]3)cc2)c(C)c1CC(=O)O",
    "MEASURED METRIC": "pKi",
    "OBSERVED VALUE": 6.37
  },
  {
    "COMPOUND": "CCCc1nc2cc(N(Cc3ccccc3Cl)S(=O)(=O)c3ccc(F)cc3)ccc2n1CC(=O)O",
    "MEASURED METRIC": "pKi",
    "OBSERVED VALUE": "> 7.00"
  },
  {
    "COMPOUND": "Cc1c(-c2nn(Cc3ccc(F)cc3)c(=O)c3ccccc23)c2cc(Cl)ccc2n1CC(=O)O",
    "MEASURED METRIC": "pKi",
    "OBSERVED VALUE": "> 7.00"
  },
  {
    "COMPOUND": "O=C(O)Cc1c2n(c3ccccc13)CC(n1cc(-c3cccc4ccccc34)nn1)CC2 (centres unmarked)",
    "MEASURED METRIC": "pKi",
    "OBSERVED VALUE": "< 7.00"
  },
  {
    "COMPOUND": "Cc1c(C2=NN(CCOc3ccccc3)S(=O)(=O)c3ccccc32)c2cc(F)ccc2n1CC(=O)O",
    "MEASURED METRIC": "pKi",
    "OBSERVED VALUE": "> 6.00"
  },
  {
    "COMPOUND": "Cc1c(S(=O)(=O)Nc2ccc(F)cc2)c2cc(F)ccc2n1CC(=O)O",
    "MEASURED METRIC": "pKi",
    "OBSERVED VALUE": 6.74
  },
  {
    "COMPOUND": "Cc1c(S(=O)(=O)Cc2ccccc2)c2cc(F)ccc2n1CC(=O)O",
    "MEASURED METRIC": "pKi",
    "OBSERVED VALUE": 8.22
  },
  {
    "COMPOUND": "CC(C(=O)N(C)[C@@H]1CCc2c(CC(=O)O)c3ccccc3n2C1)c1ccccc1 (some centres unmarked)",
    "MEASURED METRIC": "pKi",
    "OBSERVED VALUE": "≥ 8.30"
  },
  {
    "COMPOUND": "Cc1nnn(C2CCc3c(CC(=O)O)c4cccc(F)c4n3C2)c1Cc1ccc(F)cc1 (single isomer, unassigned)",
    "MEASURED METRIC": "pKi",
    "OBSERVED VALUE": "≥ 8.30"
  },
  {
    "COMPOUND": "CCS(=O)(=O)Nc1ccc(S(=O)(=O)c2c(C)c(CC(=O)O)c3ccc(F)cn23)cc1",
    "MEASURED METRIC": "pKi",
    "OBSERVED VALUE": 7.33
  },
  {
    "COMPOUND": "CCCc1nc2c(N(CCOC)S(=O)(=O)c3cccc(F)c3)cccc2n1CC(=O)O",
    "MEASURED METRIC": "pKi",
    "OBSERVED VALUE": "> 5.00"
  },
  {
    "COMPOUND": "O=C(O)Cc1c2n(c3c(F)cccc13)CC(n1nncc1Cc1ccc(F)c(F)c1)CC2 (single isomer, unassigned)",
    "MEASURED METRIC": "pKi",
    "OBSERVED VALUE": "< 7.00"
  },
  {
    "COMPOUND": "O=C(O)Cc1c2n(c3ccccc13)CC(n1nncc1C(O)(c1ccc(F)cc1)c1ccc(F)cc1)CC2 (single isomer, unassigned)",
    "MEASURED METRIC": "pKi",
    "OBSERVED VALUE": "≥ 8.30"
  },
  {
    "COMPOUND": "CCCOc1cc(S(=O)(=O)n2c(C)c(CC(=O)O)c3cccnc32)ccc1C#N",
    "MEASURED METRIC": "pKi",
    "OBSERVED VALUE": 7.30
  },
  {
    "COMPOUND": "Cc1nn(Cc2ccc(-c3nc4cccnc4[nH]3)cc2)c(C)c1CC(=O)O",
    "MEASURED METRIC": "pKi",
    "OBSERVED VALUE": 6.93
  },
  {
    "COMPOUND": "CCCc1nc2cc(N(CCCOc3ccccc3)S(=O)(=O)c3ccc(F)cc3)ccc2n1CC(=O)O",
    "MEASURED METRIC": "pKi",
    "OBSERVED VALUE": "> 7.00"
  },
  {
    "COMPOUND": "Cc1nn(Cc2ccc(-c3nc4c(F)c(F)ccc4[nH]3)cc2)c(C)c1CC(=O)O",
    "MEASURED METRIC": "pKi",
    "OBSERVED VALUE": 8.31
  },
  {
    "COMPOUND": "CCc1nn(Cc2ccc(-c3nc4ccncc4[nH]3)cc2F)c(CC)c1CC(=O)O",
    "MEASURED METRIC": "pKi",
    "OBSERVED VALUE": 7.22
  },
  {
    "COMPOUND": "Cc1c(S(=O)(=O)NCc2ccccc2)c2cc(F)ccc2n1CC(=O)O",
    "MEASURED METRIC": "pKi",
    "OBSERVED VALUE": 6.56
  },
  {
    "COMPOUND": "Cc1noc(C)c1CN1C(c2c(C)n(CC(=O)O)c3ccccc23)CCS1(=O)=O (centres unmarked)",
    "MEASURED METRIC": "pKi",
    "OBSERVED VALUE": "> 7.00"
  },
  {
    "COMPOUND": "O=C(O)Cn1cc(C2c3ccccc3S(=O)(=O)N2Cc2ccccc2)c2ccccc21 (centres unmarked)",
    "MEASURED METRIC": "pKi",
    "OBSERVED VALUE": "> 5.00"
  },
  {
    "COMPOUND": "CCCc1nc2cc(N(Cc3ccccc3)C(=O)c3ccc(F)c(F)c3)ccc2n1CC(=O)O",
    "MEASURED METRIC": "pKi",
    "OBSERVED VALUE": "> 6.00"
  },
  {
    "COMPOUND": "Cc1c(C2=NN(Cc3ccccc3)S(=O)(=O)c3ccccc32)c2cc(F)ccc2n1CC(=O)O",
    "MEASURED METRIC": "pKi",
    "OBSERVED VALUE": "> 6.00"
  },
  {
    "COMPOUND": "O=C(O)Cc1c2n(c3ccccc13)CC(n1nncc1Cc1ccccc1)CC2 (single isomer, unassigned)",
    "MEASURED METRIC": "pKi",
    "OBSERVED VALUE": "≥ 8.30"
  },
  {
    "COMPOUND": "Cc1ccc2c(c1)c(C1c3ccccc3S(=O)(=O)N1C(C)C#N)cn2CC(=O)O (centres unmarked)",
    "MEASURED METRIC": "pKi",
    "OBSERVED VALUE": "> 5.00"
  },
  {
    "COMPOUND": "Cc1nc2c(Cl)ccc(OCC(=O)NS(C)(=O)=O)c2c(C)c1Cc1ccc(Cl)cc1",
    "MEASURED METRIC": "pKi",
    "OBSERVED VALUE": "> 6.00"
  },
  {
    "COMPOUND": "COc1ccc2c(c1)c(C1c3ccccc3S(=O)(=O)N1Cc1ccc(F)cc1)cn2CC(=O)O (centres unmarked)",
    "MEASURED METRIC": "pKi",
    "OBSERVED VALUE": "> 6.00"
  },
  {
    "COMPOUND": "CCc1nc2c(F)ccc(O[C@@H](C)C(=O)O)c2c(OC)c1Cc1ccc(Cl)cc1Cl",
    "MEASURED METRIC": "pKi",
    "OBSERVED VALUE": "> 7.00"
  },
  {
    "COMPOUND": "CCCc1nc2cc(N(C3CCCCC3)S(=O)(=O)c3ccc(F)cc3)ccc2n1CC(=O)O",
    "MEASURED METRIC": "pKi",
    "OBSERVED VALUE": "> 6.00"
  },
  {
    "COMPOUND": "COc1ccc2c(c1)c(C1c3ccccc3S(=O)(=O)N1C(C)Cc1ccccc1)cn2CC(=O)O (centres unmarked)",
    "MEASURED METRIC": "pKi",
    "OBSERVED VALUE": "> 5.00"
  }
]
